Where do these numbers come from? They come from the supplement of paper PMC5908809.

System: normal primary NK cells, pool 1 (3 donors), resting (IL-2 0 ng/mL);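 note: normalised to DMSO-only wells as negative and benzethonium chloride as positive control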
Protocol notes: percent inhibition of viability; higher = more inhibition
Test settings: 72 h; 10 nM
Listing of entries alongside the reported percent inhibition of viability.
Express the result in % but write the number alone.

>>> value_observed("CC(C)CC(=O)Nc1n[nH]c2c1CN(C(=O)C1CCN(C)CC1)C2(C)C (max concentration tested 10000 nM)")
-45.2
>>> value_observed("CC(C)n1nc(-c2ccc3oc(N)nc3c2)c2c(N)ncnc21 [INK128] (max concentration tested 1000 nM)")
15.4
>>> value_observed("COc1ccc(S(=O)(=O)Nc2cccnc2Nc2ccc(O)cc2)cc1 [ABT-751] (max concentration tested 10000 nM)")
-5.61
>>> value_observed("CNc1nc(-c2ccc3c(N)n[nH]c3c2)cc(N2C[C@@H](C(=O)NC3CCCCC3)CC[C@H]2C)n1 (max concentration tested 10000 nM)")
-12.7
>>> value_observed("Cc1cc(Nc2cc(N3CCN(C)CC3)nc(Sc3ccc(NC(=O)C4CC4)cc3)n2)n[nH]1 [Tozasertib] (max concentration tested 10000 nM)")
-2.46
>>> value_observed("CN(C[C@@H]1COCCO1)S(=O)(=O)Nc1ccc2ccc3ncc(-c4cnn(C)c4)cc3c(=O)c2c1 [MK-2461] (max concentration tested 10000 nM)")
-18.1
>>> value_observed("Cc1nc(Nc2ncc(C(=O)Nc3c(C)cccc3Cl)s2)cc(N2CCN(CCO)CC2)n1 [Dasatinib] (max concentration tested 1000 nM)")
15.4
>>> value_observed("Cc1ccc(NC(=O)c2ccc(CN3CCN(C)CC3)cc2)cc1Nc1nccc(-c2cccnc2)n1 [Imatinib] (max concentration tested 10000 nM)")
-13.2
>>> value_observed("CCc1cc(Nc2nccc(-c3c(-c4ccc(OC)c(C(=O)Nc5c(F)cccc5F)c4)nc4ccccn34)n2)c(OC)cc1N1CCC(N2CCN(S(C)(=O)=O)CC2)CC1 (max concentration tested 10000 nM)")
-7.72
>>> value_observed("O=C(c1cc(Cc2n[nH]c(=O)c3ccccc23)ccc1F)N1CCN(C(=O)C2CC2)CC1 [Olaparib] (max concentration tested 10000 nM)")
1.92

For the record CC[C@@]1(O)C(=O)OCc2c1cc1n(c2=O)Cc2cc3c(CN(C)C)c(O)ccc3nc2-1 [Topotecan] (max concentration tested 10000 nM) , what value of percent inhibition of viability is listed for normal primary NK cells, pool 1 (3 donors), resting (IL-2 0 ng/mL)?
14.8

For the record CCN(c1cc(-c2ccc(CN3CCOCC3)cc2)cc(C(=O)NCc2c(C)cc(C)[nH]c2=O)c1C)C1CCOCC1 [E7438] (max concentration tested 10000 nM) , what value of percent inhibition of viability is listed for normal primary NK cells, pool 1 (3 donors), resting (IL-2 0 ng/mL)?
-0.47

For the record c1ccc([C@H]2CN3CCSC3=N2)cc1 [Levamisole] (max concentration tested 10000 nM) , what value of percent inhibition of viability is listed for normal primary NK cells, pool 1 (3 donors), resting (IL-2 0 ng/mL)?
-2.06
